Tested on: SEM cells
Assay Summary: cell viability relative to DMSO control; higher = less cytotoxic
Reported Conditions: RPMI 5 mM glucose + 10% dialyzed FBS; 48 h; 0.19 µM
Readout Type: cell viability (%)
Numeric answer only, unit % assumed.

### Prompt Which cell viability value belongs to O=C(O)CCNc1cc(N2CCc3ccccc3CC2)nc(-c2ccccn2)n1 ?
### Response 120

### Prompt Which cell viability value belongs to Clc1ccccc1C(c1ccccc1)(c1ccccc1)n1cccn1 ?
### Response 121

### Prompt Which cell viability value belongs to CN[C@H]1[C@H](O[C@@H]2[C@H](O[C@@H]3[C@@H](O)[C@@H](O)[C@@H](NC(=N)N)[C@@H](O)[C@H]3NC(=N)N)O[C@H](C)[C@@]2(O)C=O)O[C@@H](CO)[C@@H](O)[C@H]1O ?
### Response 114

### Prompt Which cell viability value belongs to NCCCC(O)(P(=O)(O)O)P(=O)(O)O.O.O.O.[Na+] ?
### Response 113

### Prompt Which cell viability value belongs to C[N+](C)(C)CC(=O)O.[Cl-] ?
### Response 89

====

System: NOMO1
Assay Summary: cell viability relative to DMSO control; higher = less cytotoxic
Reported Conditions: RPMI 5 mM glucose + 10% dialyzed FBS; 48 h; 0.00702 µM
Below, each entry is listed alongside its reported cell viability.
Numeric answer only, unit % assumed.

Sample records with cell viability:
{"Structure String": "CCNC(=O)Nc1ccc(-c2nc3c(c(N4CCOC[C@@H]4C)n2)CCN(C2COC2)C3)cc1", "Reported Value": 119}
{"Structure String": "C=CC(=O)Nc1cccc(Oc2nc(Nc3ccc(N4CCN(C)CC4)cc3OC)ncc2Cl)c1", "Reported Value": 79.4}
{"Structure String": "C[C@H](NC(=O)Cc1cc(F)cc(F)c1)C(=O)N[C@@H]1C(=O)N(C)c2ccccc2-c2ccccc21", "Reported Value": 121}
{"Structure String": "CN1/C=C(\\N=C(NC2=CC=C(C=C2)C(=O)N3CCOCC3)/C1=O)/C4=C(C)C(=CC=C4)NC(=O)C5=CC=C(C=C5)C(C)(C)C", "Reported Value": 96.2}
{"Structure String": "Cc1ccc(NC(=O)c2cccc(N(C)C)c2)cc1NC(=O)c1ccc(O)cc1", "Reported Value": 115}

### Prompt Which cell viability value belongs to C[N+](C)(C)CC(=O)O.[Cl-] ?
### Response 79.7

### Prompt Which cell viability value belongs to C/C(=C\c1csc(C)n1)[C@@H]1C[C@@H]2O[C@@H]2CCC[C@H](C)[C@H](O)[C@@H](C)C(=O)C(C)(C)[C@@H](O)CC(=O)O1 ?
### Response 20

### Prompt Which cell viability value belongs to CCc1c(O)cc(O)c(C(=O)c2ccc(OCCN3CCOCC3)c(OC)c2)c1CC(=O)N(CCOC)CCOC ?
### Response 114

====

Below, each entry is listed alongside its reported cell viability.
System: SEM cells
Assay Summary: cell viability relative to DMSO control; higher = less cytotoxic
Reported Conditions: RPMI 5 mM glucose + 10% FBS; 48 h; 46.1 µM
Numeric answer only, unit % assumed.

### Prompt Param readout= cell viability; system= SEM cells; entry= O=C(O)CSCC(=O)NC1CCSC1=O (stereo unspecified) ; returns value.
### Response 98.8

### Prompt Param readout= cell viability; system= SEM cells; entry= O=[S+]([O-])(CCSSCC[S+](=O)([O-])[O][Na])[O][Na] ; returns value.
### Response 111

### Prompt Param readout= cell viability; system= SEM cells; entry= CCN1\C=C(C(O)=O)/C(=O)C2=C1C=C(N3CCN(C)CC3)C(=C2)F ; returns value.
### Response 103

### Prompt Param readout= cell viability; system= SEM cells; entry= CC(Cc1ccc(O)c(O)c1)(NN)C(=O)O (stereo unspecified) ; returns value.
### Response 76.1

### Prompt Param readout= cell viability; system= SEM cells; entry= O=C(O)CCNc1cc(N2CCc3ccccc3CC2)nc(-c2ccccn2)n1 ; returns value.
### Response 76.9

### Prompt Param readout= cell viability; system= SEM cells; entry= NC(=O)c1cnc(-c2ccc(C3(N)CCC3)cc2)c(-c2ccccc2)c1 ; returns value.
### Response 24.5

Provenance of the data: the supplement of paper PMC11451515
